Examples of sequences with documented PBM binding z-score follow.
tested on: LXRb:RXRa (NR concentration 270 nM, RXRa partner concentration 90 nM); experiment: PBM binding z-score (relative to random genomic background probes); higher = stronger binding; sequences stand for … in GC…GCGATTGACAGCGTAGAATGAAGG
Reply with the value as a number alone.

CCTACTGGGCCAAAAAGGTCATTGAAGCCGATAA : 4.22
AGAACGAGGGCACGCTGAGATGATAGCAGAGTAG : 0.0557
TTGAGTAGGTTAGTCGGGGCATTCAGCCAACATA : 0.932
CCGACTGGTGCAGAAAGGTTACCATACCATCCGG : 0.491
TCTTGTAGATCAATAGAGGTTAAAAAAGTGCGCT : 2.5
TCTCTGAGGACACGAAAGGTCAGAGCTCGACATC : 2.98

Problem: Identify measured PBM binding z-score corresponding to CAAACTAGGTCAAGGTAAAAGTCGGTTTGTGCCA
Result: 1.97

Problem: Identify measured PBM binding z-score corresponding to CGTCCATGGTCAATGCTAGGTCAGTGAAAGCATT
Result: 0.222

Problem: Identify measured PBM binding z-score corresponding to TCAGACAGGTGAAGCTAACTCAGGTACGCAGTCG
Result: 0.231

Problem: Identify measured PBM binding z-score corresponding to TCTTGTAGATCAGCAGGTTCAGAAAGCTGGCCAA
Result: 0.265

Problem: Identify measured PBM binding z-score corresponding to TCCTGTAGATCAACAGGAGGTTAAGAAAGATCGA
Result: 0.973

Problem: Identify measured PBM binding z-score corresponding to CGTCCAAGGTCCAAGGTCAGTGAAGAGATGACGG
Result: 1.1
